# System: Wild type
# assay_details: S. aureus survival, RN4220 and DeltatarO strains – OD600, teichoic acid synthesis inhibitors, primary screen (AID 463173)
# experimental_context: S. aureus RN4220 wild type/DeltatarO growth, OD600, 18 h, screened at 18.75 µg/mL (by protocol)
Hit rate of the full screen: of about 52,000 compounds, about 1,700 (3.3%) were called active. Rule as the data show it: active = survival mostly below about 52% (no sharp cut-off); inactive = mostly above about 56%. Many of the other results were omitted from the sample, so actives are more common in it than they were.
Possible outcomes: YES = active, NO = inactive

# compound, study_target, group_label
records = [
    ("COc1ccc(CCNC(=O)Cn2nc(C)n3c(cc4occc43)c2=O)cc1OC", "Wild type", "NO"),
    ("CCOc1ccc2c(c1)[C@@H]1C=CC[C@@H]1[C@H](c1ccccc1Cl)N2", "Wild type", "YES"),
    ("CCn1c(O)c(/C=C/c2nc3ccccc3n2CC)sc1=S", "Wild type", "NO"),
    ("Cc1ccc(Cl)cc1NC(c1ccc(F)cc1)c1nnc(-c2ccccc2)o1 (configuration not stated)", "Wild type", "NO"),
    ("CCOC(=O)c1cccc2c1N[C@@H](c1ccc(F)cc1)[C@H]1CC=C[C@@H]21", "Wild type", "YES"),
    ("CCC(C)Cn1c(/C=C/c2ccccc2)nc2ccccc21 (configuration not stated)", "Wild type", "YES"),
    ("Cc1cccc(C(=O)NCCc2nc3ccccc3n2CCC(C)C)c1", "Wild type", "NO"),
    ("CCCn1c(CNC(=O)c2ccc(F)cc2)nc2ccccc21", "Wild type", "NO"),
    ("Cc1cc(C)cc(N2C(=O)N(Cc3cc(=O)n4ccccc4n3)c3ccccc3S2(=O)=O)c1", "Wild type", "NO"),
    ("Fc1ccc([C@@H]2Nc3ccccc3[C@@H]3C=CC[C@@H]32)cc1", "Wild type", "NO"),
    ("COc1ccc(CNc2nc(-c3ccco3)nn2C(=O)c2ccccc2Cl)cc1", "Wild type", "NO"),
    ("CCCCCCn1c(/C=C/c2ccccc2)nc2ccccc21", "Wild type", "YES"),
    ("COc1ccc(NC(c2ccc(F)cc2)c2nnc(-c3ccccc3Cl)o2)cc1Cl (configuration not stated)", "Wild type", "NO"),
    ("Cc1cc2nn(-c3ccccc3)nc2cc1NC(=O)c1cccc2c(Cl)cccc12", "Wild type", "NO"),
    ("COc1ccc(Br)cc1[C@@H]1Nc2ccc(C(=O)O)cc2[C@@H]2C=CC[C@@H]21", "Wild type", "NO"),
    ("CCCCCn1c(CNC(=O)c2ccccc2)nc2ccccc21", "Wild type", "NO"),
    ("COC(=O)c1cccc2c1NC(c1cccnc1)C1CC=CC21 (configuration not stated)", "Wild type", "NO"),
    ("CC(C)Cn1c(/C=C/c2ccc(F)cc2)nc2ccccc21", "Wild type", "YES"),
    ("Cc1ccc(C)c(N2CCN(C(=O)C3CCC(CNS(=O)(=O)c4ccc(Br)s4)CC3)CC2)c1 (configuration not stated)", "Wild type", "NO"),
    ("COC(=O)c1ccc([C@H]2Nc3ccc(S(=O)(=O)Nc4ccc(F)cc4)cc3[C@H]3C=CC[C@H]32)cc1", "Wild type", "NO"),
    ("CC(C)C1N(c2ccccc2)CCN1c1ccccc1", "Wild type", "NO"),
    ("COc1cc(Cl)c(C)cc1NC(c1ccccc1)c1nnc(-c2ccccc2Cl)o1 (configuration not stated)", "Wild type", "NO"),
]

// data source = PubChem BioAssay AID463173
